# ASSAY TARGET: human ether-à-go-go-related gene (hERG) potassium channel (human, UniProt Q12809)
# Sequence (Q12809 whole entry, looked up): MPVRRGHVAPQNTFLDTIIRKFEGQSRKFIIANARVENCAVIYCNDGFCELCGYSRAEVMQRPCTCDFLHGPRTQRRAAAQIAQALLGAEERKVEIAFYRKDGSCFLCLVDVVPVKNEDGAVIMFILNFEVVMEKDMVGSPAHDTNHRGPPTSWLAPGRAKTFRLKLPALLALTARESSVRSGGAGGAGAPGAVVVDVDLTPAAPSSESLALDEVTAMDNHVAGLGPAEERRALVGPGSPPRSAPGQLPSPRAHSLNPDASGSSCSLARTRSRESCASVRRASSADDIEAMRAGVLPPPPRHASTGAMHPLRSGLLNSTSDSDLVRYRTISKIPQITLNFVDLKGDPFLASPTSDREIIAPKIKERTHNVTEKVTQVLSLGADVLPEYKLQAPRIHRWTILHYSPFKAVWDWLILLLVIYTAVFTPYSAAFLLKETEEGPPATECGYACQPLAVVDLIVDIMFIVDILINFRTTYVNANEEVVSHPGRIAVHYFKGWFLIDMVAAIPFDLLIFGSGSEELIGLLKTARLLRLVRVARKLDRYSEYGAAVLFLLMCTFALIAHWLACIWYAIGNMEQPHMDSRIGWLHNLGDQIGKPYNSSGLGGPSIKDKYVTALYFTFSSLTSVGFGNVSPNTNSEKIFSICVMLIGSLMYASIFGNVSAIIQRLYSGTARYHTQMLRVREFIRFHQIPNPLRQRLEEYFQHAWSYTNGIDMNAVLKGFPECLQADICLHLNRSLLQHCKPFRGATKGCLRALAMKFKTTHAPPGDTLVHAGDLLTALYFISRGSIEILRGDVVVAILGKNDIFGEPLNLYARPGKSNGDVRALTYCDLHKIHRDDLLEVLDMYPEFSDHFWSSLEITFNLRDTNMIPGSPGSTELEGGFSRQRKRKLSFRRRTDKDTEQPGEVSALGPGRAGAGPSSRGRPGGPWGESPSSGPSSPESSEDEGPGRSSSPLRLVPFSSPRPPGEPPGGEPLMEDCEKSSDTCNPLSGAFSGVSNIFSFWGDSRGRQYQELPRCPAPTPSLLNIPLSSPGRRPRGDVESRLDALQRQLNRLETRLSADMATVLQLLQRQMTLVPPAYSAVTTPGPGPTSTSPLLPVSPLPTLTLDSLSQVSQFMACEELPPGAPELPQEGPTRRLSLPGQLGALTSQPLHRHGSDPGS
# TEST DETAILS: primary screen, population patch clamp on CHO cells stably expressing hERG; higher = less effect of the substance
The whole screen tested about 310,000 compounds, of which about 14,000 (4.5%) showed an effect of 50% or more. Effects have a minus sign here. The sample holds strong results, similar compounds and a random draw of the others, so the mix is not that of the screen.
Decide by hERG current change (%, negative = inhibition) at 10uM: equal to or exceeding -50% means Fulfilled, less means Not fulfilled.

COMPOUND: CCc1ccc(S(=O)(=O)N2c3ccc(C)cc3C3CN(C)CCC32)cc1 (centres unmarked)
QUALITATIVE LABEL: Not fulfilled

COMPOUND: Cc1ccc2c(c1)C1CN(C)CCC1N2S(=O)(=O)c1cccc(C(F)(F)F)c1 (centres unmarked)
QUALITATIVE LABEL: Fulfilled

COMPOUND: Cc1nn2c(-c3cccc(NC(=O)CSc4nc5ccccc5o4)c3)nnc2c2ccccc12
QUALITATIVE LABEL: Not fulfilled

Next, consider the following compound.
Say whether "COc1ccc(CNC(=S)Nc2ccc(OC)cc2)cc1" shows hERG current change (%, negative = inhibition) at 10uM of -50% or more.
Fulfilled

----------
# ASSAY TARGET: human ether-à-go-go-related gene (hERG) potassium channel (human, UniProt Q12809)
# TEST DETAILS: primary screen, population patch clamp on CHO cells stably expressing hERG; higher = less effect of the substance
# Description: Briefly, Chinese hamster ovary (CHO) cells stably expressing the hERG channel were dislodged from tissue culture flasks and dispensed into PPC plates. […] During the recording, background leak currents were estimated by a 100 ms step to -80 mV from an initial holding potential of -70 mV and subtracted from the subsequent current measurement. The campaign was conducted in two phases using slight differences in recording protocol. […]
The whole screen tested about 310,000 compounds, of which about 14,000 (4.5%) showed an effect of 50% or more. The effect is printed as a negative number. This is one part of a sample in which strong results are shown more often than they occur.
Decide by hERG current change (%, negative = inhibition) at 10uM: equal to or exceeding -10% means 1, less means -1.

COMPOUND: CC(OC(=O)c1cccs1)C(=O)NC1CC1 (stereo not shown)
ASSAY TARGET: human ether-à-go-go-related gene (hERG) potassium channel (human, UniProt Q12809)
QUALITATIVE LABEL: 1

COMPOUND: CCn1c(SCC(=O)c2ccccc2)nnc1-c1cccs1
ASSAY TARGET: human ether-à-go-go-related gene (hERG) potassium channel (human, UniProt Q12809)
QUALITATIVE LABEL: -1

COMPOUND: N#CCCN1CCN(C(=S)c2ccc(-c3cc(Cl)ccc3Cl)o2)CC1
ASSAY TARGET: human ether-à-go-go-related gene (hERG) potassium channel (human, UniProt Q12809)
QUALITATIVE LABEL: -1

COMPOUND: Cn1c(Cc2cccs2)nnc1SC/C=C/c1ccccc1
ASSAY TARGET: human ether-à-go-go-related gene (hERG) potassium channel (human, UniProt Q12809)
QUALITATIVE LABEL: 1

COMPOUND: Cc1noc(C)c1C(=O)NCc1ccco1
ASSAY TARGET: human ether-à-go-go-related gene (hERG) potassium channel (human, UniProt Q12809);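 further: peak tail current of the secondary pulse compared with the same well before compound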
QUALITATIVE LABEL: 1

COMPOUND: COc1ccc2c(COC(=O)CNC(=O)C34CC5CC(CC(C5)C3)C4)cc(=O)oc2c1
ASSAY TARGET: human ether-à-go-go-related gene (hERG) potassium channel (human, UniProt Q12809);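 further: peak tail current of the secondary pulse compared with the same well before compound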
QUALITATIVE LABEL: -1

COMPOUND: N#CCCN1CCN(C(=S)c2ccc(-c3ccc(Cl)c(Cl)c3)o2)CC1
ASSAY TARGET: human ether-à-go-go-related gene (hERG) potassium channel (human, UniProt Q12809);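 further: peak tail current of the secondary pulse compared with the same well before compound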
QUALITATIVE LABEL: -1

COMPOUND: Cc1ccc(NC(=O)c2ccco2)cc1NC(=O)CSc1nnc(-c2cccs2)n1C
ASSAY TARGET: human ether-à-go-go-related gene (hERG) potassium channel (human, UniProt Q12809);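 further: peak tail current of the secondary pulse compared with the same well before compound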
QUALITATIVE LABEL: -1

Say whether "CCn1c(SCC(=O)Nc2ccccc2)nnc1-c1cccs1" shows hERG current change (%, negative = inhibition) at 10uM of -10% or more.
-1

Say whether O=C(CSc1ccc(Br)cc1)NC1CCS(=O)(=O)C1 (stereo not shown) shows hERG current change (%, negative = inhibition) at 10uM of -10% or more.
1

These measurements were taken from paper PMC4336329.
